Reported % inhibition of SMAD7 mRNA expression values for a set of substances
System: human SMAD7 mRNA
experiment description: Dose-dependent inhibition of human SMAD7 mRNA expression in Hep3B cells (Example 3, Study 1 and 2)
Type: cell-based
experimental conditions: 1250.0 nM, electroporation, approximately 16 hours, Study 1
Strand notation (5' to 3'): a small letter for the sugar, then the base; units joined by * are phosphorothioate-linked, units joined directly phosphodiester-linked; [ ] holds rarer units or linkages, { } end groups; capitals alone tell only the bases. e = 2'-O-(2-methoxyethyl) (MOE); [5mC] = 5-methylcytosine; d = 2'-deoxy (DNA)

substance | study system | % inhibition of SMAD7 mRNA expression
771464 (antisense eG*eA*eG*eA*eG*dG*dG*d[5mC]*dT*d[5mC]*d[5mC]*dT*dG*dG*dA*e[5mC]*eA*e[5mC]*eA*eG) [compound 771464] | human SMAD7 mRNA | 8%
771885 (antisense e[5mC]*eA*eA*eG*eT*d[5mC]*dT*d[5mC]*dT*dT*dA*d[5mC]*d[5mC]*dT*d[5mC]*eA*e[5mC]*e[5mC]*e[5mC]*eA) [compound 771885] | human SMAD7 mRNA | 4%
771634 (antisense eT*eG*eA*e[5mC]*eG*dG*dA*d[5mC]*d[5mC]*dA*dA*dA*dT*d[5mC]*d[5mC]*eT*eT*e[5mC]*eT*eT) [compound 771634] | human SMAD7 mRNA | 3%
771418 (e[5mC]*e[5mC]*eG*e[5mC]*e[5mC]*dA*d[5mC]*d[5mC]*dG*dG*d[5mC]*d[5mC]*d[5mC]*d[5mC]*dA*eT*eG*e[5mC]*eG*e[5mC]; antisense) [compound 771418] | human SMAD7 mRNA | 0%
771777 (antisense e[5mC]*e[5mC]*e[5mC]*eT*e[5mC]*dA*dG*dT*d[5mC]*dT*d[5mC]*dA*dG*dA*dT*eA*eA*e[5mC]*eA*eG) [compound 771777] | human SMAD7 mRNA | 0%
771390 (antisense e[5mC]*eG*eG*e[5mC]*eT*dG*d[5mC]*d[5mC]*d[5mC]*d[5mC]*dA*d[5mC]*d[5mC]*d[5mC]*d[5mC]*eG*e[5mC]*eG*e[5mC]*eG) [compound 771390] | human SMAD7 mRNA | 12%
771788 (antisense e[5mC]*e[5mC]*eA*eA*e[5mC]*dT*d[5mC]*dT*dG*dA*dA*d[5mC]*dG*dG*dA*eA*eA*eG*eA*eA) [compound 771788] | human SMAD7 mRNA | 0%
771670 (antisense eA*eG*eT*e[5mC]*e[5mC]*dT*dT*dT*d[5mC]*dT*d[5mC]*dT*d[5mC]*dT*d[5mC]*eA*eA*eA*eG*e[5mC]) [compound 771670] | human SMAD7 mRNA | 0%
771869 (antisense eA*eG*e[5mC]*e[5mC]*eA*dA*dG*dT*dG*dT*d[5mC]*d[5mC]*dA*dT*d[5mC]*eA*eA*eG*e[5mC]*eA) [compound 771869] | human SMAD7 mRNA | 0%
771786 (antisense eA*eG*e[5mC]*eT*e[5mC]*dA*dA*dA*d[5mC]*dT*dT*dT*dG*dA*dA*eG*e[5mC]*e[5mC]*eT*eT) [compound 771786] | human SMAD7 mRNA | 0%
771573 (antisense eG*e[5mC]*eT*eT*eG*dG*dG*dA*d[5mC]*dT*dG*d[5mC]*dA*dA*dA*e[5mC]*e[5mC]*eT*e[5mC]*eT) [compound 771573] | human SMAD7 mRNA | 5%
